- Experimental System: Glutamate receptor ionotropic, kainate (Rattus norvegicus)
- Method Description: Displacement of [3H]SYM2081 from kainate receptor in rat brain membrane
Observed Property: pKi
Just the number, please; pKi means minus log10 of the concentration in mol/L.

N[C@@H](Cn1cc(I)c(=O)n(CCC(=O)O)c1=O)C(=O)O ... 4.28

Query compound follows.
Problem: Record request: pKi value, item `N[C@@H](Cn1ccc(=O)n(CCCC(=O)O)c1=O)C(=O)O`
Solution: 4.02

====

Recorded pKi, one value per entry.
- Experimental System: Glutamate receptor ionotropic, kainate 2 (Rattus norvegicus, UniProt P42260)
- Sequence (P42260 whole entry): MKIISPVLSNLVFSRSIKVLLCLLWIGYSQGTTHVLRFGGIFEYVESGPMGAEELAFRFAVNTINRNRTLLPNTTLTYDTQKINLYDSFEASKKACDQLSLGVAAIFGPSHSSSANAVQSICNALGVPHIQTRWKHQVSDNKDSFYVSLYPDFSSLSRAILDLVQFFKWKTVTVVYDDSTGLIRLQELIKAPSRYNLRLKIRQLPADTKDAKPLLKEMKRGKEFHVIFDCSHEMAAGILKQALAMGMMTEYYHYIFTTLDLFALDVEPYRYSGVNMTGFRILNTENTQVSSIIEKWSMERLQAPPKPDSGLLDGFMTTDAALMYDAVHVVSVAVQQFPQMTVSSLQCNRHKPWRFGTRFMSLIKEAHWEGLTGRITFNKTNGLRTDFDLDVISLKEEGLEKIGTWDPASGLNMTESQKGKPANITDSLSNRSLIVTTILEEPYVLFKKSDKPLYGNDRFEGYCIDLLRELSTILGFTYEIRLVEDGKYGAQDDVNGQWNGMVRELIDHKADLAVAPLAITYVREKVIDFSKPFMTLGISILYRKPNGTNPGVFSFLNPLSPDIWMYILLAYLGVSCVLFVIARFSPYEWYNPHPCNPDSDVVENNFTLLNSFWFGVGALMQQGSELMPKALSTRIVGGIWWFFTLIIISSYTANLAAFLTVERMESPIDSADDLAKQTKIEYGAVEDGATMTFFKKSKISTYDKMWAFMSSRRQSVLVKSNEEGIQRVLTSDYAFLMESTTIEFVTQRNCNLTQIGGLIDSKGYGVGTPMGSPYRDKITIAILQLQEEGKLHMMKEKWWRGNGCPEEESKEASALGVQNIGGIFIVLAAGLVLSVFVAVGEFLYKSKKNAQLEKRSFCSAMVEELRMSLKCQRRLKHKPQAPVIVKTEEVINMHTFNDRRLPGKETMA
- Method Description: Displacement of [3H]kainate from rat GLUK6 receptor expressed in HEK293 cells
- Type: cell-based
pKi: −log10 of the molar value.

N[C@@H](Cn1ccc(=O)n(CCCC(=O)O)c1=O)C(=O)O ... < 3.00
N[C@@H](Cn1ccc(=O)n(CCC(=O)O)c1=O)C(=O)O ... < 4.00
NC(Cn1ccc(=O)n(Cc2ccccc2C(=O)O)c1=O)C(=O)O (racemic) ... < 3.00
N[C@@H](Cn1ccc(=O)n(Cc2ccccc2C(=O)O)c1=O)C(=O)O ... < 3.00
N#Cc1cc2c(cc1[N+](=O)[O-])=NC(=O)C(=O)N=2 ... 5.98
N[C@@H](Cn1ccc(=O)n(Cc2cccc(C(=O)O)c2)c1=O)C(=O)O ... < 3.00
N[C@@H](Cn1cc(I)c(=O)n(CCC(=O)O)c1=O)C(=O)O ... < 4.00
N[C@@H](Cn1ccc(=O)n(Cc2ccc(C(=O)O)cc2)c1=O)C(=O)O ... < 4.00

Problem: Record request: pKi value, item `N[C@H](Cn1ccc(=O)n(CCC(=O)O)c1=O)C(=O)O`
Solution: < 4.00
